assayed system: DNA topoisomerase 2-alpha (Homo sapiens, UniProt P11388)
Sequence (P11388 whole entry): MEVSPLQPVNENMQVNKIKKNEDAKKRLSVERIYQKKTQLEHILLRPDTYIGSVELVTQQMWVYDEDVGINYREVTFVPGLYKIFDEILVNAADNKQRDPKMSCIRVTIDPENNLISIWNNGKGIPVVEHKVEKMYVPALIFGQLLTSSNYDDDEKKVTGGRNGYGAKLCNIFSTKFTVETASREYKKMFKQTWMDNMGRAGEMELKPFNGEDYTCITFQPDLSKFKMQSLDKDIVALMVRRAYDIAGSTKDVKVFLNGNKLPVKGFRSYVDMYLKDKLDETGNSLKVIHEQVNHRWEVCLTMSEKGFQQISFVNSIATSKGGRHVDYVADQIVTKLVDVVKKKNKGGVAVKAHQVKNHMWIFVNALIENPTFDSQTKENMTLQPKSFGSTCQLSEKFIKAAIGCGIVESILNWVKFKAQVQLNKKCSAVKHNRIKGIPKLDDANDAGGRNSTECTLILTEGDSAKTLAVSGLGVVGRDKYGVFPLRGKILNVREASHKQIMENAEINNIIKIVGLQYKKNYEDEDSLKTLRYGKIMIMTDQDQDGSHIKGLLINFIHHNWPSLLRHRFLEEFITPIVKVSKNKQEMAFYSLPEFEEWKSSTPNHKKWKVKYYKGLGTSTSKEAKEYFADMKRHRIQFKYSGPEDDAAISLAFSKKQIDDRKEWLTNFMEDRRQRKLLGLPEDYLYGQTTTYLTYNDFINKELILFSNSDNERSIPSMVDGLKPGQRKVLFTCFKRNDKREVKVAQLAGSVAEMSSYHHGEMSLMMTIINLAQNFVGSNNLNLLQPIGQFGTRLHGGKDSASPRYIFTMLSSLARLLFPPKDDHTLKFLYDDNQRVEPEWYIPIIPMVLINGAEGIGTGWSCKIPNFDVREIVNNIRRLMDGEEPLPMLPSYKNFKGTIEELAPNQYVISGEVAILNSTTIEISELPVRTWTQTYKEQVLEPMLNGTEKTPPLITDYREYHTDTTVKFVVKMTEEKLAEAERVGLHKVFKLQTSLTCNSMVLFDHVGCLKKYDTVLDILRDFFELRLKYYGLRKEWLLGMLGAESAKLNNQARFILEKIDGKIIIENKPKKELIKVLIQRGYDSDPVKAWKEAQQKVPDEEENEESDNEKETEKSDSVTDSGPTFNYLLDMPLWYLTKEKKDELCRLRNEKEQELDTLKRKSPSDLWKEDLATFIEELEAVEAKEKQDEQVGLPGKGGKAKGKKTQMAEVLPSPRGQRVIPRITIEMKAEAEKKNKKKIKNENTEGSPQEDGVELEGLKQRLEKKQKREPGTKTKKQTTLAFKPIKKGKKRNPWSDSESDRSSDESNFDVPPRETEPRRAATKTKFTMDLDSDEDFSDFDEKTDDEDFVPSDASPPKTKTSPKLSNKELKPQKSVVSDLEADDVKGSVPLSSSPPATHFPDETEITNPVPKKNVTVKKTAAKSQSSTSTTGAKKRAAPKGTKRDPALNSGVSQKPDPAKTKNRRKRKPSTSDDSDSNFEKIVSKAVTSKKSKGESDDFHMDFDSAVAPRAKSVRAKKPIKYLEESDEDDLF
procedure summary: Inhibition of human topoisomerase-2 alpha expressed in baculovirus infected insect cells assessed as reduction in enzyme-meditaed supercoiled pRYG DNA substrate relaxation in presence of buffer containing DTT after 30 mins by agarose gel electrophoresis method
IC50 for assorted compounds

The cases that follow already have their IC50 on record.
compound | IC50
O=C1C(O)=C(C(c2ccc(Br)cc2)c2c(O)c3ccccc3oc2=O)C(=O)c2ccccc21 (configuration not stated) | 10 to 30 µM
O=C1C(O)=C(C(c2ccccc2)c2c(O)c3ccccc3oc2=O)C(=O)c2ccccc21 (configuration not stated) | 10 to 30 µM

Let's switch to this compound now.
**Q:** Look up IC50: O=C1C(O)=C(C(c2ccccc2F)c2c(O)c3ccccc3oc2=O)C(=O)c2ccccc21 (configuration not stated)
**A:** 10 to 30 µM

---

System: Escherichia coli
procedure summary: Inhibition of Escherichia coli DNA gyrase assessed as reduction in enzyme-mediated supercoiling activity at 100 uM using ladder of partially relaxed pBlueScript 2 KS+ DNA as substrate after 1 hr by agarose gel electrophoresis method
The source made the active and inactive calls. The calls are words filed in the database; no cut-off is given here.
Permitted responses: 1.0 (active), 0.0 (inactive)

**Q:** Hi, do you know how O=C1C(O)=C(C(c2ccccc2F)c2c(O)c3ccccc3oc2=O)C(=O)c2ccccc21 (stereo not drawn) came out in this test?
**A:** 0.0

**Q:** Also need O=C1C(O)=C(C(c2ccccc2)c2c(O)c3ccccc3oc2=O)C(=O)c2ccccc21 (stereo not drawn) , thanks.
**A:** 0.0

**Q:** Also need O=C1C(O)=C(C(c2ccc([N+](=O)[O-])cc2)c2c(O)c3ccccc3oc2=O)C(=O)c2ccccc21 (stereo not drawn) , thanks.
**A:** 0.0

**Q:** Also need O=C1C(O)=C(C(c2ccc3c(c2)OCO3)c2c(O)c3ccccc3oc2=O)C(=O)c2ccccc21 (stereo not drawn) , thanks.
**A:** 0.0

**Q:** Also need O=C1C(O)=C(C(c2ccc(F)cc2)c2c(O)c3ccccc3oc2=O)C(=O)c2ccccc21 (stereo not drawn) , thanks.
**A:** 0.0

**Q:** Also need O=C1C(O)=C(C(c2ccc(Br)cc2)c2c(O)c3ccccc3oc2=O)C(=O)c2ccccc21 (stereo not drawn) , thanks.
**A:** 0.0

**Q:** Also need O=C(O)c1cn(C2CC2)c2cc(N3CCNCC3)c(F)cc2c1=O , thanks.
**A:** 1.0

**Q:** Also need O=C1C(O)=C(C(c2ccc(Cl)cc2)c2c(O)c3ccccc3oc2=O)C(=O)c2ccccc21 (stereo not drawn) , thanks.
**A:** 0.0

---

assayed system: DNA topoisomerase 2-alpha (Homo sapiens)
procedure summary: Inhibition of human topoisomerase-2 alpha ATPase activity expressed in baculovirus infected insect cells assessed as disappearance of NADH at 10 uM using pBR322 DNA as substrate preincubated for 10 mins followed by ATP addition measured up to 35 mins by spectrophotometric based pyruvate kinase/lactate dehydrogenase coupled enzyme assay relative to control
If the reported inhibition equals or exceeds 60%, assign true. If not, assign false.

compound | label value
O=C1C(O)=C(C(c2ccc([N+](=O)[O-])cc2)c2c(O)c3ccccc3oc2=O)C(=O)c2ccccc21 (configuration not stated) | false

**Q:** Does the reported inhibition for O=C1C(O)=C(C(c2ccccc2F)c2c(O)c3ccccc3oc2=O)C(=O)c2ccccc21 (configuration not stated) fall at or above the 60% mark?
**A:** false

**Q:** Also need O=C1C(O)=C(C(c2ccc(Br)cc2)c2c(O)c3ccccc3oc2=O)C(=O)c2ccccc21 (configuration not stated) , thanks.
**A:** false
